Give binding signal for every item shown.
- targetUnderTest: POU1 (OCT1 POU domain) (human, UniProt P14859 260-458)
- Sequence (P14859 260-458): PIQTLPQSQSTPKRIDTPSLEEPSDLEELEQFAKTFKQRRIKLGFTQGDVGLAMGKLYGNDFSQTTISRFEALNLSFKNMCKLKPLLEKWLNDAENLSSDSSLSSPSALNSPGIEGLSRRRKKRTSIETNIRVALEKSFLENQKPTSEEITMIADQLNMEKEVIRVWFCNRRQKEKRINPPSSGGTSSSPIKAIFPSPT
- testDetails: EMSA-SELEX-seq; no BOB1; 20 mM Tris-HCl pH 7.6, 140 mM NaCl, 10% glycerol, 0.5 mM EDTA, 0.05% Triton X-100, 0.1 mg/mL BSA, 0.1 mg/mL poly(dI-dC), 5 mM DTT, room temperature, 20 min; high values mean tight binding
- conditionParameters: protein: recombinant; dsDNA, one strand shown

Examples from the recorded data:
| seqText | metricName | resultValue |
| --- | --- | --- |
| ATCCTAAT | binding signal | 0.0614 % of ANNNNAAN 8-mers |
| ATAATAAA | binding signal | 0.194 % of ANNNNAAN 8-mers |
| ATTAAAAA | binding signal | 0.172 % of ANNNNAAN 8-mers |

Let us move to another entry and its binding signal.
Lab note: ATAGGAAA gave binding signal of 0.131 % of ANNNNAAN 8-mers

###

- targetUnderTest: POU1 (OCT1 POU domain);BOB1 (OBF1, OCA-B) (human;human, UniProt P14859;Q16633 260-458;1-256, |)
- Sequence (P14859 260-458, chain 1 of 2): as the sequence (P14859 260-458) above
- Sequence (Q16633 whole entry, chain 2 of 2, the tested form may be a part): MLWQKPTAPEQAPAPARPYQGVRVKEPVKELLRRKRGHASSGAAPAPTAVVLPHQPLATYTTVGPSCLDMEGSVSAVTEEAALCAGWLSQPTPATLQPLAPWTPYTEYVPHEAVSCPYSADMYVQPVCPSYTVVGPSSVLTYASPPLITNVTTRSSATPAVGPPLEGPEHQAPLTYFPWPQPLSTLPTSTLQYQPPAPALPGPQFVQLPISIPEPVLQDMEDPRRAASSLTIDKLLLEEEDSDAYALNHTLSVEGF
- testDetails: EMSA-SELEX-seq; with BOB1 (ternary complex band); 20 mM Tris-HCl pH 7.6, 140 mM NaCl, 10% glycerol, 0.5 mM EDTA, 0.05% Triton X-100, 0.1 mg/mL BSA, 0.1 mg/mL poly(dI-dC), 5 mM DTT, room temperature, 20 min; high values mean tight binding
- conditionParameters: protein: recombinant;recombinant; copies: 1;1; dsDNA, one strand shown
metricName: binding signal

Take each entry in turn and give its binding signal.
1. ACCGGAAT
2. AGTCAAAA
3. AAAGGAAC
4. AAGAGAAA
5. ACGTGAAT
6. AATTCAAG
7. AGCCCAAT

1. 0.0398 % of ANNNNAAN 8-mers
2. 0.265 % of ANNNNAAN 8-mers
3. 0.0476 % of ANNNNAAN 8-mers
4. 0.0531 % of ANNNNAAN 8-mers
5. 0.0558 % of ANNNNAAN 8-mers
6. 0.0714 % of ANNNNAAN 8-mers
7. 0.0226 % of ANNNNAAN 8-mers

###

- targetUnderTest: POU1 (OCT1 POU domain);BOB1 (OBF1, OCA-B) (human;human, UniProt P14859;Q16633 260-458;1-256, |)
- testDetails: EMSA-SELEX-seq; with BOB1 (ternary complex band); 20 mM Tris-HCl pH 7.6, 140 mM NaCl, 10% glycerol, 0.5 mM EDTA, 0.05% Triton X-100, 0.1 mg/mL BSA, 0.1 mg/mL poly(dI-dC), 5 mM DTT, room temperature, 20 min; high values mean tight binding
- conditionParameters: protein: recombinant;recombinant; copies: 1;1; dsDNA, one strand shown
Give binding signal for every item shown.

Take each entry in turn and give its binding signal.
1. ACTTAAAC
2. ACCGTAAG
3. AGAGCAAG
4. AAAGAAAA

["0.0277 % of ANNNNAAN 8-mers", "0.0195 % of ANNNNAAN 8-mers", "0.0191 % of ANNNNAAN 8-mers", "0.132 % of ANNNNAAN 8-mers"]

###

- targetUnderTest: POU1 (OCT1 POU domain) (human, UniProt P14859 260-458)
- testDetails: EMSA-SELEX-seq; no BOB1; 20 mM Tris-HCl pH 7.6, 140 mM NaCl, 10% glycerol, 0.5 mM EDTA, 0.05% Triton X-100, 0.1 mg/mL BSA, 0.1 mg/mL poly(dI-dC), 5 mM DTT, room temperature, 20 min; high values mean tight binding
- conditionParameters: protein: recombinant; dsDNA, one strand shown
metricName: binding signal

Examples from the recorded data:
| seqText | resultValue |
| --- | --- |
| ACACTAAG | 0.0179 % of ANNNNAAN 8-mers |
| AGCATAAA | 0.204 % of ANNNNAAN 8-mers |
| AACTCAAG | 0.0194 % of ANNNNAAN 8-mers |
| AGTGTAAT | 0.085 % of ANNNNAAN 8-mers |
| ATAGAAAT | 0.0782 % of ANNNNAAN 8-mers |
| ATCACAAT | 0.045 % of ANNNNAAN 8-mers |

Take each entry in turn and give its binding signal.
1. ATTCCAAA
2. ATGGAAAT
3. AGATCAAT
4. ATTGCAAA
5. AGCATAAG
6. ATCCAAAC
7. ACACAAAA
8. AGTTGAAC

1. 0.0481 % of ANNNNAAN 8-mers
2. 0.943 % of ANNNNAAN 8-mers
3. 0.0465 % of ANNNNAAN 8-mers
4. 0.202 % of ANNNNAAN 8-mers
5. 0.105 % of ANNNNAAN 8-mers
6. 0.0233 % of ANNNNAAN 8-mers
7. 0.0454 % of ANNNNAAN 8-mers
8. 0.0259 % of ANNNNAAN 8-mers

Take each entry in turn and give its binding signal.
1. ACCTCAAT
2. ACGCGAAT
3. AGAATAAT
4. ATTCAAAG
5. AGCCAAAC
6. ATTCGAAG

0.0202 % of ANNNNAAN 8-mers
0.0389 % of ANNNNAAN 8-mers
0.203 % of ANNNNAAN 8-mers
0.281 % of ANNNNAAN 8-mers
0.0194 % of ANNNNAAN 8-mers
0.0564 % of ANNNNAAN 8-mers

Take each entry in turn and give its binding signal.
1. ACTCTAAT
2. ATGACAAT

1: 0.0488 % of ANNNNAAN 8-mers; 2: 0.0576 % of ANNNNAAN 8-mers

###

Give binding signal for every item shown.
- targetUnderTest: POU1 (OCT1 POU domain) (human, UniProt P14859 260-458)
- testDetails: EMSA-SELEX-seq; no BOB1; 20 mM Tris-HCl pH 7.6, 140 mM NaCl, 10% glycerol, 0.5 mM EDTA, 0.05% Triton X-100, 0.1 mg/mL BSA, 0.1 mg/mL poly(dI-dC), 5 mM DTT, room temperature, 20 min; high values mean tight binding
- conditionParameters: protein: recombinant; dsDNA, one strand shown

Examples from the recorded data:
| seqText | binding signal |
| --- | --- |
| ATTCCAAG | 0.045 % of ANNNNAAN 8-mers |
| AGTAAAAT | 0.226 % of ANNNNAAN 8-mers |
| ACATCAAA | 0.0374 % of ANNNNAAN 8-mers |
| AGCCGAAC | 0.0133 % of ANNNNAAN 8-mers |
| AGTAAAAG | 0.061 % of ANNNNAAN 8-mers |

Take each entry in turn and give its binding signal.
1. ACGGTAAG
2. AGGCTAAC
3. ACGCGAAA
4. ACTAGAAC
5. AGCGAAAG
6. ACTACAAT

1: 0.0351 % of ANNNNAAN 8-mers; 2: 0.013 % of ANNNNAAN 8-mers; 3: 0.0179 % of ANNNNAAN 8-mers; 4: 0.016 % of ANNNNAAN 8-mers; 5: 0.0248 % of ANNNNAAN 8-mers; 6: 0.0309 % of ANNNNAAN 8-mers

Take each entry in turn and give its binding signal.
1. ATGCGAAC
2. ACGTTAAT
3. ACTTGAAC
4. ACCTAAAC
5. ACCATAAA
6. AAGCGAAT

1: 0.04 % of ANNNNAAN 8-mers; 2: 0.112 % of ANNNNAAN 8-mers; 3: 0.0183 % of ANNNNAAN 8-mers; 4: 0.013 % of ANNNNAAN 8-mers; 5: 0.0625 % of ANNNNAAN 8-mers; 6: 0.0538 % of ANNNNAAN 8-mers

Take each entry in turn and give its binding signal.
1. ATTGTAAC
2. AAGACAAA
3. AATAGAAT
4. ACTGAAAA
5. ACAGCAAC

0.0362 % of ANNNNAAN 8-mers
0.0538 % of ANNNNAAN 8-mers
0.113 % of ANNNNAAN 8-mers
0.0313 % of ANNNNAAN 8-mers
0.0153 % of ANNNNAAN 8-mers

###

- targetUnderTest: POU2 (OCT2 POU domain) (human, UniProt P09086 175-386)
- Sequence: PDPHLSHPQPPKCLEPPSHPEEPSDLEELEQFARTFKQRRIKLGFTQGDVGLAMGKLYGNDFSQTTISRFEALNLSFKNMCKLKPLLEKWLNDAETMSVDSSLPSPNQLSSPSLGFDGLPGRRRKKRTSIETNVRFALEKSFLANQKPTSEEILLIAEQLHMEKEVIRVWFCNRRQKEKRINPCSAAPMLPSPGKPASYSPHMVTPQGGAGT
- testDetails: EMSA-SELEX-seq; no BOB1; 20 mM Tris-HCl pH 7.6, 140 mM NaCl, 10% glycerol, 0.5 mM EDTA, 0.05% Triton X-100, 0.1 mg/mL BSA, 0.1 mg/mL poly(dI-dC), 5 mM DTT, room temperature, 20 min; high values mean tight binding
- conditionParameters: protein: recombinant; dsDNA, one strand shown
Give binding signal for every item shown.

| seqText | binding signal |
| --- | --- |
| ATAGTAAT | 0.148 % of ANNNNAAN 8-mers |
| ACTCTAAT | 0.0604 % of ANNNNAAN 8-mers |
| ACGTTAAT | 0.163 % of ANNNNAAN 8-mers |
| ACACTAAT | 0.0811 % of ANNNNAAN 8-mers |
| AAGTGAAA | 0.0587 % of ANNNNAAN 8-mers |
| ACTGTAAA | 0.042 % of ANNNNAAN 8-mers |
| ATAAGAAC | 0.0518 % of ANNNNAAN 8-mers |
| ATATTAAA | 0.365 % of ANNNNAAN 8-mers |

Take each entry in turn and give its binding signal.
1. AAGTGAAT
2. ACACGAAT

1: 0.123 % of ANNNNAAN 8-mers; 2: 0.0575 % of ANNNNAAN 8-mers

Take each entry in turn and give its binding signal.
1. ATGCTAAC
2. AAGCTAAT
3. ACCGGAAA
4. ACTAAAAC
5. ACCTAAAA

0.0949 % of ANNNNAAN 8-mers
0.136 % of ANNNNAAN 8-mers
0.0236 % of ANNNNAAN 8-mers
0.0311 % of ANNNNAAN 8-mers
0.0311 % of ANNNNAAN 8-mers

Take each entry in turn and give its binding signal.
1. AGCGTAAA
2. AATGGAAC
3. AGACCAAA
4. ATGGAAAC
5. AGGCCAAA
6. AGTCAAAG
7. AGTATAAA

0.0455 % of ANNNNAAN 8-mers
0.0466 % of ANNNNAAN 8-mers
0.0213 % of ANNNNAAN 8-mers
0.0616 % of ANNNNAAN 8-mers
0.027 % of ANNNNAAN 8-mers
0.0748 % of ANNNNAAN 8-mers
0.08 % of ANNNNAAN 8-mers
